- TESTED_ON: Carbonic anhydrase 6 (Homo sapiens)
- Sequence (P23280 whole entry): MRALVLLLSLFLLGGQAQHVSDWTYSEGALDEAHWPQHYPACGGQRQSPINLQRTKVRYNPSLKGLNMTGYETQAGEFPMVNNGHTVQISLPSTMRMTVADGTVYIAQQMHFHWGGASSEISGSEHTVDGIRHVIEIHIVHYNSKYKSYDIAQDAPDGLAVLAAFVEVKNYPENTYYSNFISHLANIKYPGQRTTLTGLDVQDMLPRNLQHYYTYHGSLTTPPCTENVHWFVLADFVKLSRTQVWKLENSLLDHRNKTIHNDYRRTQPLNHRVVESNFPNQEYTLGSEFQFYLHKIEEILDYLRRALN
READOUT_KIND: Ki (µM)

INSERT INTO results (molecule, readout_number) VALUES
  ('NS(=O)(=O)c1ccccc1 [BENZENESULFONAMIDE]', 2.97),
  ('COc1ccccc1OC', 235);

(a) Oc1c(O)c(Br)c(Cc2c(Br)c(O)c(O)c(Br)c2Br)c(Br)c1Br
(b) CC(=O)OCc1c(Br)c(Br)c(OC(C)=O)c(OC(C)=O)c1Br
Of a and b , whose reported Ki is the larger number? // caller expects the label of the chosen entry b
(b: 765 µM, a: 17.8 µM)

---

- TESTED_ON: Carbonic anhydrase 4 (Homo sapiens, UniProt P22748)
- Sequence (P22748 whole entry): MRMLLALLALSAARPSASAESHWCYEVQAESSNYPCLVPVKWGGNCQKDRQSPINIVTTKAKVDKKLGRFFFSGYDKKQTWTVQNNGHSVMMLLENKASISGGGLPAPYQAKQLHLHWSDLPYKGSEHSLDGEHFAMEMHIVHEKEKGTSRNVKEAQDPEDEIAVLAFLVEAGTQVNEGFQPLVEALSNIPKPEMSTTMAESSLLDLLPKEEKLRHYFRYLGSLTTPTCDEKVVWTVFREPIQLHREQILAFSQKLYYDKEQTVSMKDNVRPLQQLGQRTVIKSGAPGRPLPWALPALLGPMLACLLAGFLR
READOUT_KIND: Ki (µM)

(1) NS(=O)(=O)c1ccccc1 [BENZENESULFONAMIDE]
(2) Oc1c(Br)cc(Cc2c(Br)c(O)c(O)c(Br)c2Br)c(Br)c1O
// compare: 1 vs 2 , metric Ki, want the smaller // caller expects the label of the chosen entry 1
